B1: TRIM43 (parent)
chain: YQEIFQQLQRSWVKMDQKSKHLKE

# Variants of: B1
# EXPERIMENT NOTES: protein stability index of a GFP-peptide fusion (GPS, HEK-293T) (PSI 1-6); higher = more stable;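 note: lentivirally expressed fusions sorted by FACS into six bins by GFP to DsRed ratio, PSI derived from sequencing read proportions per bin multiplied by bin number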
# CONDITION DESCRIPTION: c terminus: a fixed tail appended
Measured protein stability index values are reported for all entries that follow.
Answer as a number with no unit attached.

Use the examples below as a reference point.
1) K23H | 1.79
2) E3Q | 1.63
3) L22Q | 2.91
4) Q2T | 2.18
5) L22A | 2.22
6) Q9P | 2.73

# input I have this variant here, "Q2C" , and I need its recorded protein stability index.
# output 2.36
